The reported measurements were obtained from patent US20250304644A1.

Target: T1, human SNAP-tagged GLP-2R (human, UniProt O95838 1-553, SNAP tag labeled with Tag-Lite SNAP-Lumi4-Tb)
T1 sequence (looked up): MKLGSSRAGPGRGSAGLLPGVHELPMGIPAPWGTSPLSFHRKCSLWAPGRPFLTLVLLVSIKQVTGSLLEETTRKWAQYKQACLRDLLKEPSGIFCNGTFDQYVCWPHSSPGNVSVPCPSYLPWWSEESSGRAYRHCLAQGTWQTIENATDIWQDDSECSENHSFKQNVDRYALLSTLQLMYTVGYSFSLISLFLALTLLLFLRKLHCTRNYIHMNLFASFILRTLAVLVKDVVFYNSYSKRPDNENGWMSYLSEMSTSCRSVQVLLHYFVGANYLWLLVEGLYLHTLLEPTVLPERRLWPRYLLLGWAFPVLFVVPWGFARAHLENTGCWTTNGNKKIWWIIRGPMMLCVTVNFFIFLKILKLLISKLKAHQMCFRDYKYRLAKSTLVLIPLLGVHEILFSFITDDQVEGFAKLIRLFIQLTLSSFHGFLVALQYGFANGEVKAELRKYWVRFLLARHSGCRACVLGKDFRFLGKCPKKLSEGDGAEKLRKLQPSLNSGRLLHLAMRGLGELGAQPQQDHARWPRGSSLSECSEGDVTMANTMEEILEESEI
Assay: cell-based or functional assay
*1 amine or outer side, *2 acyl side, *3 side chain or, on linkers, in order; H or OH if unused. Where no end group is shown, it is not given here. Side-chain parts run from the residue outwards. [ ]: non-standard residue; d: D form. The star is where a group is joined. C18 diacid = O=C(O)CCCCCCCCCCCCCCCCC(=O)*; γGlu = O=C(O)[C@H](CCC(=O)[*:2])N[*:1]; AEEA = NCCOCCOCC(=O)O; Aib = CC(C)(N)C(=O)O
Listing of entries alongside the reported Absolute hGLP-2R internalization (AUC).
Number only, in AUC; omit the unit.

See these solved cases before continuing.
INSERT INTO measurements (binder, quantity_name, reported_value) VALUES
  ('HADGSFSDEMNTILDNLAARDFINWLIQTKITD (ligand) [hGLP-2]', 'Absolute hGLP-2R internalization (AUC)', 48.6),
  ('HADGTFTSDYSTILDK([AEEA-AEEA-γGlu-C18 diacid])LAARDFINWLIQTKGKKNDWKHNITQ-OH [Compound 21]', 'Absolute hGLP-2R internalization (AUC)', 36.3);

INPUT: # return recorded Absolute hGLP-2R internalization (AUC) for input HADGTFTSDYSIILDK([AEEA-AEEA-γGlu-C18 diacid])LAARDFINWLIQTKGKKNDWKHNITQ-OH [Compound 20]
OUTPUT: 39.4

INPUT: # return recorded Absolute hGLP-2R internalization (AUC) for input HADGTFTSDYST[Aib]LDK([AEEA-AEEA-γGlu-C18 diacid])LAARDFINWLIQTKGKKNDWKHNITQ-OH [Compound 22]
OUTPUT: 38

INPUT: # return recorded Absolute hGLP-2R internalization (AUC) for input H[Aib]DGTFISDYSTILDALAARDFINWLIQTKITK([AEEA-AEEA-γGlu-C18 diacid])-OH [Compound 28]
OUTPUT: 12
